Reference source for all entries: PubChem BioAssay (Tox21)

# ASSAY_SYSTEM: Nuclear receptor subfamily 1 group I member 3 (Homo sapiens) (UniProt Q14994)
# Sequence (Q14994 whole entry, looked up): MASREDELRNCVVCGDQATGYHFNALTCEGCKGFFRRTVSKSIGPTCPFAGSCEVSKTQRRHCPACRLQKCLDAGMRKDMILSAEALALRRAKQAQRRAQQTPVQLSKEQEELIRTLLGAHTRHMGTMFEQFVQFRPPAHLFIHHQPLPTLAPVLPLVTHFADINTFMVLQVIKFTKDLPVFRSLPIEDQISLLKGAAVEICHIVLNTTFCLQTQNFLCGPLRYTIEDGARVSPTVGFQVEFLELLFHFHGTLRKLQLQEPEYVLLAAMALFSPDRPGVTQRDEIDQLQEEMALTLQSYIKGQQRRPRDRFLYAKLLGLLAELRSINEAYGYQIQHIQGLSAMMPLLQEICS
# TEST_PROTOCOL: qHTS assay to identify small molecule antagonists of the constitutive androstane receptor (CAR) signaling pathway (AID 1224838);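 note: HepG2 cells stably expressing hCAR with CYP2B6 luciferase reporter stimulated by CITCO; % is set by controls: 0 for no effect and ±100 for the full control effect; nearly all actives have a fitted effect of over 40% in size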
# CONDITION_INFO: HepG2-CYP2B6-hCAR luciferase, CITCO-stimulated, 24 h; series mostly up to 92.4 µM
# Source text: U.S. Tox21 Program National Center for Advancing Translational Sciences [NCATS] NIH Chemical Genomics Center [NCGC] U.S. Environmental Protection Agency [EPA] National Institutes of Environmental Health Sciences [NIEHS] National Toxicology Program [NTP] U.S. Food and Drug Administration [FDA] […] Tox21 Assay Protocol Summary: A double-stable (hCAR and CYP2B6-2.2kb) transfected cell line, derived from human hepatoma (HepG2) cells, was utilized for the duration of the quantitative high-throughput screens. […]
Inconclusive results are not listed. Activity calls are given as the source filed them. Calls come from the whole dose curve; as a rule, active = well fitted inhibition curve with a large enough effect in the repeat runs; inconclusive = weak or mixed curves, or effect the other way; inactive = no such curve, though single readings can be large or run the other way.
PROPERTY_LABEL: activity, negative = inhibition

| MOLECULE | ASSAY_SYSTEM | activity, negative = inhibition |
| --- | --- | --- |
| CC1(C)[C@@H](O)CC[C@]2(C)[C@H]3C(=O)C=C4[C@@H]5C[C@@](C)(C(=O)O)CC[C@]5(C)CC[C@@]4(C)[C@]3(C)CC[C@@H]12 | Nuclear receptor subfamily 1 group I member 3 (Homo sapiens) (UniProt Q14994) | inactive |
| COc1cccc(OC)c1C(=O)O | Nuclear receptor subfamily 1 group I member 3 (Homo sapiens) (UniProt Q14994) | inactive |
| CC(C)CCCCCOC(=O)CCS | Nuclear receptor subfamily 1 group I member 3 (Homo sapiens) (UniProt Q14994) | inactive |
| CCCCCCCCCCCCCC[N+](C)(C)Cc1ccccc1 | Nuclear receptor subfamily 1 group I member 3 (Homo sapiens) (UniProt Q14994) | inactive |

For each of the molecules below, state activity, negative = inhibition.
1. Cc1c(C)c([N+](=O)[O-])c(C(C)(C)C)c([N+](=O)[O-])c1C
2. CCCCCCCC
3. O=C(O)c1cc(N=Nc2ccc([N+](=O)[O-])cc2)ccc1O
4. O=C(/C=C/c1ccc(O)c(O)c1)O[C@@H](C(=O)O)[C@@H](OC(=O)/C=C/c1ccc(O)c(O)c1)C(=O)O
5. NC[C@H]1O[C@H](O[C@H]2[C@H](O[C@@H]3O[C@H](CO)[C@@H](O)[C@H]3O)C(O)[C@H](N)C[C@@H]2N)[C@H](N)[C@@H](O)[C@@H]1O (some centres not stated)
6. CCCCCCCCCCOC(=O)c1ccccc1C(=O)OCCCCCCCC
7. O=S(=O)(O)c1ccc(N=Nc2c(O)ccc3ccccc23)cc1

OUTPUT:
1. inactive
2. inactive
3. inactive
4. inactive
5. -13% [at 8.39 µM] (inactive)
6. inactive
7. inactive

For each of the molecules below, state activity, negative = inhibition.
1. Nc1cc(Cl)c(O)c(Cl)c1
2. Cc1ccc(O)c(O)c1
3. CN1CCN(Cc2cc(-c3ccc4[nH]c(=O)oc4c3)co2)[C@@H](c2ccc(F)cc2)C1
4. CN(C)[C@@H](CCOc1cccc2ccccc12)c1ccccc1

OUTPUT:
1. inactive
2. inactive
3. inactive
4. inactive
